# SA1708 S. aureus ermA positive msrA negative: MIC values follow
Your answer is read as µg/mL, so omit the unit and give the number.

[
  {
    "MOLECULE": "CC[C@H]1OC(=O)[C@H](C)C(=O)[C@H](C)[C@@H](O[C@@H]2OC(C)CC(N(C)C)C2O)[C@](C)(OC)C[C@@H](C)CN[C@H](C)[C@H]2N(CCCCn3cc(-c4ccccn4)nn3)C(=O)O[C@]12C (some centres unmarked) [FSM-20706]",
    "UNIT ABBREV": "µg/mL",
    "MIC": 4
  }
]

As a next step, examine the molecule that follows.
Request body: readout MIC, system SA1708 S. aureus ermA positive msrA negative, query CC[C@H]1OC(=O)C(C)C(=O)[C@@H](C)[C@@H](O[C@@H]2OC(C)CC(N(C)C)C2O)[C@](C)(OC)C[C@@H](C)CN[C@H](C)[C@H]2N(CCCCn3cc(-c4ccccn4)nn3)C(=O)O[C@]12C (some centres unmarked) [FSM-20754] . Return the value.
4

----------
# Test system: BS1725 B. subtilis ermC
# ASSAY TEXT: broth dilution MIC, B. subtilis BS1725
# Format: cell-based
# STUDY CONDITIONS: Bacillus subtilis, BS1725 B. subtilis ermC (+ery)
# Text: We have collected MIC data for a total of 50 novel macrolides that this platform has produced against over 21 unique strains of B. subtilis, E. coli, S. aureus, S. pneumoniae, and H. influenzae, including several multidrug-resistant strains, with a special focus on macrolide resistant mechanisms (vide supra). Azithromycin was included as a control macrolide. CLSI standard procedures for broth dilution MIC determination were used. […] These genotypes can be constitutive or inducible. […]
MEASURED QUANTITY: MIC

// below: answered molecules
[
  {
    "MOLECULE": "CC[C@H]1OC(=O)[C@H](C)C(=O)[C@H](C)[C@@H](O[C@@H]2OC(C)CC(N(C)C)C2O)[C@](C)(OC)C[C@@H](C)CN[C@H](C)[C@H]2N(CCCCn3cc(-c4cccc(N)c4)nn3)C(=O)O[C@]12C (stereo partly drawn) [FSM-20707]",
    "VALUE REPORTED": "8 µg/mL"
  },
  {
    "MOLECULE": "CC[C@H]1OC(=O)C(C)(F)C(=O)[C@@H](C)[C@@H](O[C@@H]2OC(C)CC(N(C)C)C2O)[C@](C)(OC)C[C@@H](C)CN[C@H](C)[C@H]2N(CCCCn3cc(-c4nc5ccccc5s4)nn3)C(=O)O[C@]12C (stereo partly drawn) [FSM-20722]",
    "VALUE REPORTED": "> 32 µg/mL"
  },
  {
    "MOLECULE": "CC[C@H]1OC(=O)[C@H](C)[C@@H](O[C@H]2C[C@@](C)(OC)[C@@H](O)[C@H](C)O2)[C@H](C)[C@@H](O[C@@H]2O[C@H](C)C[C@H](N(C)C)[C@H]2O)[C@](C)(O)C[C@@H](C)CN(C)[C@H](C)[C@@H](O)[C@]1(C)O [Azithromycin, reference compound]",
    "VALUE REPORTED": "> 32 µg/mL"
  },
  {
    "MOLECULE": "CC[C@H]1OC(=O)[C@H](C)C(=O)C[C@@H](O[C@@H]2OC(C)CC(N(C)C)C2O)[C@](C)(OC)C[C@@H](C)CN(C(C)=O)[C@H](C)[C@H]2N(CCCCn3cc(-c4nccs4)nn3)C(=O)O[C@]12C (stereo partly drawn) [FSM-10790]",
    "VALUE REPORTED": "> 32 µg/mL"
  },
  {
    "MOLECULE": "CC[C@H]1OC(=O)C(C)(F)C(=O)[C@@H](C)[C@@H](O[C@@H]2OC(C)CC(N(C)C)C2O)[C@](C)(OC)C[C@@H](C)CN[C@H](C)[C@H]2N(CCCCn3cc(-c4cccc(N)n4)nn3)C(=O)O[C@]12C (stereo partly drawn) [FSM-20718]",
    "VALUE REPORTED": "> 32 µg/mL"
  }
]

Find the recorded MIC belonging to CC[C@H]1OC(=O)[C@](C)(F)C(=O)C[C@@H](O[C@@H]2OC(C)CC(N(C)C)C2O)[C@](C)(OC)C[C@@H](C)CN[C@H](C)[C@H]2N(CCCCn3cc(-c4nc5ccccc5s4)nn3)C(=O)O[C@]12C (stereo partly drawn) [FSM-10671] and report it.
> 32 µg/mL
